# target under test: UniProt O14920
# Sequence (O14920 whole entry): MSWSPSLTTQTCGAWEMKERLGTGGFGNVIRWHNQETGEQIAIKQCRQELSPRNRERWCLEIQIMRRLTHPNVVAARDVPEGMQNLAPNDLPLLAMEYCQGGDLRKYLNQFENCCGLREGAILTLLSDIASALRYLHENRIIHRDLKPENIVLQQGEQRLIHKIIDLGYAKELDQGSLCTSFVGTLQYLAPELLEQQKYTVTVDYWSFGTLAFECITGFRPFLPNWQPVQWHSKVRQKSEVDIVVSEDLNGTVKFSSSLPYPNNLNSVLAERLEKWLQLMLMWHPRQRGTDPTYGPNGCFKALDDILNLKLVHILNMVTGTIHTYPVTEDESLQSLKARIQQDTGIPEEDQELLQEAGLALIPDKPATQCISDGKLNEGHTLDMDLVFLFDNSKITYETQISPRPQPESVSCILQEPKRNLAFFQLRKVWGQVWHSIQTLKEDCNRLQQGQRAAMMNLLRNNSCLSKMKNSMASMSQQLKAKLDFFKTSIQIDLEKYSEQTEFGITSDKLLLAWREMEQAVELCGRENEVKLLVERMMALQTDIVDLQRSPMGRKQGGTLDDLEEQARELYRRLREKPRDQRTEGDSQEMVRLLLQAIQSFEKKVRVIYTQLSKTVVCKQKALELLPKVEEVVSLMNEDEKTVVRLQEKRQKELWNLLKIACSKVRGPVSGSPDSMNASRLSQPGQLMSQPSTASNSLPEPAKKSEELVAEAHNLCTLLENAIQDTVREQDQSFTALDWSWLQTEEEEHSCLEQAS
# test method notes: Determination of IKKβ inhibitory activity (32P uptake into IκBα substrate)
# condition description: active IKKβ 10 ng, IκBα substrate protein, [γ-32P]ATP, 30° C. for 60 min; 50% inhibition of 32P uptake by the acid insoluble fraction
Where a name gives a salt, the structure may show the parent alone.
quantity: pIC50
pIC50 is a log-scale quantity: -log10 of the concentration expressed in molar.

Problem: Give the measured pIC50 for c1ccc(C(=NOC2CCNC2)c2cc3ccncc3[nH]2)cc1 (stereo not shown) [Example 91, dihydrochloride]
Solution: 5.77

---

quantity: melting point

>>> print(df.to_string())
                                   molecule       reported_result
0  CC(C)(C)OC(=O)NCCCO/N=C(\c1ccccc1)c1cc2ccncc2[nH]1           52 to 58 °C
1  O=C(NCc1ccncc1)c1cc2ccnc(NCc3ccccc3)c2[nH]1         199 to 200 °C
2              O=C(c1ccsc1)c1cc2ccncc2[nH]1  178 to 181 °C (dec.)
3         COc1ccc(C(=O)c2cc3ccncc3[nH]2)cc1         225 to 228 °C

Consider now this further compound.
Problem: Entry Cl.Clc1nccc2cc(CNCc3ccco3)[nH]c12 needs its melting point filled in; supply it.
Solution: 98 to 101 °C

---

Let's look at some compounds and their measured melting point.
Where a name gives a salt, the structure may show the parent alone.

Known results for compounds:
In [3]: df
Out[3]:
                                   compound       quantity       reported_result
0  CC(C)C(O)c1cc2ccncc2[nH]1 (stereo not shown) [Example 78]  melting point         140 to 144 °C
1  O=C(CCc1ccccc1)c1cc2ccncc2[nH]1 [Example 89]  melting point         246 to 250 °C
2  O=C(NCc1ccccc1)c1cc2ccnc(Cl)c2[nH]1 [Example 2]  melting point         217 to 220 °C
3  C/C(=N\NC(=N)N)c1cc2ccncc2[nH]1 (as salt: hydrochloride) [Example 71, dihydrochloride]  melting point  314 to 318 °C (dec.)
4          Cl.Clc1nccc2cc(CNC3CCCC3)[nH]c12  melting point         241 to 244 °C
5  CC(C)CC(=O)c1cc2ccncc2[nH]1 [Example 81]  melting point         215 to 218 °C
6  CC(C)(C)OC(=O)N1CCC(ON=C(c2ccccc2)c2cc3ccncc3[nH]2)C1 (stereo not shown) [Example 90]  melting point           80 to 82 °C
7  O=C(NCc1cccs1)c1cc2ccnc(Cl)c2[nH]1 [Example 8]  melting point         179 to 181 °C
8  O=C(c1cc2ccncc2[nH]1)N1CCCC1 [Example 33]  melting point  260 to 275 °C (dec.)

Problem: State its melting point for this compound: O=C(NCc1ccncc1)c1cc2ccnc(Cl)c2[nH]1 [Example 6]
Solution: > 340 °C

---

Catalogue of compounds with associated melting point

>>> df
                             compound       quantity  reported_result
0  O=C(Nc1cccnc1)c1cc2ccnc(Cl)c2[nH]1  melting point         > 320 °C
1    Cl.Clc1nccc2cc(CN3CCCCC3)[nH]c12  melting point    240 to 244 °C
2      O=C(Nc1cccnc1)c1cc2ccncc2[nH]1  melting point    270 to 290 °C
3  Cl.Clc1nccc2cc(CNCc3ccccn3)[nH]c12  melting point    176 to 179 °C

Please look at the following compound next.
Problem: Report melting point for Cc1ccc(C(O)c2cc3ccncc3[nH]2)cc1 (centres unmarked)
Solution: 78 to 82 °C
